Provenance of the data: patent US20190201542A1

Target: T1, human DLL3 (human, UniProt Q9NYJ7 27-492, limits assumed)
T1 construct: also called hDLL3; DLL3 protein
T1 sequence: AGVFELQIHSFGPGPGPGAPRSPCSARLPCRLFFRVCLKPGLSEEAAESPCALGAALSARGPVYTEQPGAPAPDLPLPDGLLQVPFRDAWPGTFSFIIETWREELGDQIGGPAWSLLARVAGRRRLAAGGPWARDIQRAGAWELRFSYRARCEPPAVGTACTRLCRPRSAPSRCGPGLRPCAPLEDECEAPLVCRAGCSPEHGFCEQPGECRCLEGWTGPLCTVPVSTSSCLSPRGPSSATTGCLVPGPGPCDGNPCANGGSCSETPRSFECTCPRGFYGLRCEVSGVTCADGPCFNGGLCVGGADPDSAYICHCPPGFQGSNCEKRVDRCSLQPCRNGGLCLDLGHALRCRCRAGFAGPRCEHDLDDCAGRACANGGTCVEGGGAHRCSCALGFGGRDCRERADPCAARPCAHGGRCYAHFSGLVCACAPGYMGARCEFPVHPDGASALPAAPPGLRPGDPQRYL
Assay: surface plasmon resonance
measured_metric: binding result

- binder: "hSC16.34 (antibody, human IgG1, kappa, V domains shown, humanized IgG1/kappa; also called humanized SC16.34) VH: QVQLVQSGAEVKKPGASVKVSCKASGYTFTNYGMNWVRQAPGQRLEWMGWINTYTGDPTYADDFKGRVTITRDTSASTAYMELSSLRSEDTAVYYCARIGGNSPSDYWGQGTTVTVSS VL: DIQMTQSPSSLSASVGDRVTITCKASQSVSNDVAWYQQKPGKVPKLLIYYASNRYSGVPSRFSGSGSGTDFTLTISSLQPEDVATYFCQQDYSSPWTFGGGTKVEIKR"
  measured_metric: "binding result"
  measured: "binds"
- binder: "hSC16.25 (antibody, human IgG1, kappa, V domains shown, humanized IgG1/kappa; also called humanized SC16.25) VH: QITLKESGPTLVKPTQTLTLTCTFSGFSLSTSGMGVGWIRQPPGKALEWLTDIWWDDNKYYNPSLKSRLTITKDTSKNQVVLTMTNMDPVDTATYYCARRVNYYYDPYYAMDYWGQGTLVTVSS VL: EIVLTQSPDFQSVTPKEKVTITCSASSSVSYMHWYQQKPDQSPKLLIKDSSKLASGVPSRFSGSGSGTDFTLTINSLEAEDAATYYCQQWSSNPLTFGQGTKLEIKR"
  measured_metric: "binding result"
  measured: "binds"
